// read-out pIC50, gathered for Aurora kinase A (Homo sapiens) from published studies
One number for each entry, as −log10 of the molar value.

Examples with answers:
# MOL_SMILES, OBSERVATION_TYPE, ASSAY_RESULT
data = [
    ("Cn1nc(C(N)=O)c2c1-c1nc(NCc3cccnc3)ncc1CC2", "pIC50", 5.64),
    ("CN1C(=O)c2ccccc2N(C)c2nc(Nc3cccc(S(N)(=O)=O)c3)ncc21", "pIC50", 8.68),
    ("CCN1CCN(c2cc(Nc3ncc(-c4ccc(NC(=O)c5ccccc5)cc4)s3)nc(C)n2)CC1", "pIC50", 6.85),
]

Each of the following entries comes with a recorded value; kindly state pIC50 for each.
1. C[C@@H](Oc1nc(-c2cnn(C)c2)cc2nscc12)[C@H]1CNC(=O)C1
2. Cn1cc(Nc2ncc3cnn([C@@H]4C[C@H]5C[C@H]5C4)c3n2)cc1C(=O)N1CCC[C@H]1CN1CCCC1
3. O=C1NCc2cccc(-c3cc4cc(OCCCN5CCC(O)CC5)ccc4[nH]3)c21

[6.10, 8.00, 7.21]
